Tested on: Mus musculus
Assay: Concentration required to prevent seizures upon intraperitoneal administration in mice in MES (maximal electroshock seizure) test.
Assay type: functional
Settings: Mus musculus, ip; read-out: ED50
Can you tell me ED50 for the items I'm about to list?

Past entries and their recorded results:
CC(=O)NC(Oc1ccccc1)C(=O)NCc1ccccc1 (configuration not stated) :: > 100 mg/kg
CC(=O)NC(NNc1ccccc1)C(=O)NCc1ccccc1 (configuration not stated) :: 100 mg/kg

Dear reader, for each entry below, please note its ED50.
1. CC(=O)NC(NO)C(=O)NCc1ccccc1 (configuration not stated)
2. CCOC(NC(C)=O)C(=O)NCc1ccccc1 (configuration not stated)
3. CC[S+]([O-])C(NC(C)=O)C(=O)NCc1ccccc1 (configuration not stated)

1: 100 mg/kg; 2: 62 mg/kg; 3: > 100 mg/kg

Dear reader, for each entry below, please note its ED50.
1. CC(=O)NC(C(=O)NCc1ccccc1)[N+](C)(C)C.F[B-](F)(F)F (configuration not stated)
2. CC(=O)NC(C(=O)NCc1ccccc1)N1CCCO1 (configuration not stated)

1. > 100 mg/kg
2. 31.4 mg/kg

====

Assay: Neurotoxic dose (TD50) from horizontal screen in mice
Type: toxicity, organism-based
Conditions: mouse, in vivo
Can you tell me TD50 for the items I'm about to list?

Past entries and their recorded results:
CC(=O)NC(C(=O)NCc1ccccc1)c1ccco1 (centres undefined) :: 40 mg/kg
CONC(NC(C)=O)C(=O)NCc1ccccc1 (centres undefined) :: 46 mg/kg
CON(C)C(NC(C)=O)C(=O)NCc1ccccc1 (centres undefined) :: 50.5 mg/kg

Moving on to the next compound.
I am curious: what TD50 value has been reported for CCOC(NC(C)=O)C(=O)NCc1ccccc1 (centres undefined) ?
> 112 mg/kg

====

Tested on: Mus musculus
Assay: Concentration required to prevent seizures upon intraperitoneal administration in mice in MES (maximal electroshock seizure) test.
Type: functional
Conditions: Mus musculus, ip; read-out: ED50
quantity-name: ED50

Past entries and their recorded results:
CC(=O)NC(Nc1cc[nH]n1)C(=O)NCc1ccccc1 (stereo not drawn) :: 100 mg/kg
CCS(=O)(=O)C(NC(C)=O)C(=O)NCc1ccccc1 (stereo not drawn) :: > 100 mg/kg
CONC(NC(C)=O)C(=O)NCc1ccccc1 (stereo not drawn) :: 6.2 mg/kg
CC(=O)NC(C(=O)NCc1ccccc1)N(C)C (stereo not drawn) :: 45.3 mg/kg

Dear reader, for each entry below, please note its ED50.
1. CC(=O)NC(O)C(=O)NCc1ccccc1 (stereo not drawn)
2. CC(=O)NC(Sc1ccccc1)C(=O)NCc1ccccc1 (stereo not drawn)
3. CC(=O)NC(C(=O)NCc1ccccc1)N(C)O (stereo not drawn)
4. CC(=O)NC(NNC(=O)OCc1ccccc1)C(=O)NCc1ccccc1 (stereo not drawn)
5. CON(C)C(NC(C)=O)C(=O)NCc1ccccc1 (stereo not drawn)
6. CC(=O)NC(NC(=O)C(F)(F)F)C(=O)NCc1ccccc1 (stereo not drawn)
7. CC(=O)NC(N)C(=O)NCc1ccccc1 (stereo not drawn)
8. CC(=O)NC(Nc1ccccc1)C(=O)NCc1ccccc1 (stereo not drawn)

["80.1 mg/kg", "> 300 mg/kg", "30 mg/kg", "55.6 mg/kg", "6.7 mg/kg", "> 300 mg/kg", "65.1 mg/kg", "> 300 mg/kg"]

I am curious: what ED50 value has been reported for CSC(NC(C)=O)C(=O)NCc1ccccc1 (stereo not drawn) ?
> 100 mg/kg
